Molecular target: human TLR7 (Homo sapiens, UniProt Q9NYK1)
Sequence (Q9NYK1 27-1049): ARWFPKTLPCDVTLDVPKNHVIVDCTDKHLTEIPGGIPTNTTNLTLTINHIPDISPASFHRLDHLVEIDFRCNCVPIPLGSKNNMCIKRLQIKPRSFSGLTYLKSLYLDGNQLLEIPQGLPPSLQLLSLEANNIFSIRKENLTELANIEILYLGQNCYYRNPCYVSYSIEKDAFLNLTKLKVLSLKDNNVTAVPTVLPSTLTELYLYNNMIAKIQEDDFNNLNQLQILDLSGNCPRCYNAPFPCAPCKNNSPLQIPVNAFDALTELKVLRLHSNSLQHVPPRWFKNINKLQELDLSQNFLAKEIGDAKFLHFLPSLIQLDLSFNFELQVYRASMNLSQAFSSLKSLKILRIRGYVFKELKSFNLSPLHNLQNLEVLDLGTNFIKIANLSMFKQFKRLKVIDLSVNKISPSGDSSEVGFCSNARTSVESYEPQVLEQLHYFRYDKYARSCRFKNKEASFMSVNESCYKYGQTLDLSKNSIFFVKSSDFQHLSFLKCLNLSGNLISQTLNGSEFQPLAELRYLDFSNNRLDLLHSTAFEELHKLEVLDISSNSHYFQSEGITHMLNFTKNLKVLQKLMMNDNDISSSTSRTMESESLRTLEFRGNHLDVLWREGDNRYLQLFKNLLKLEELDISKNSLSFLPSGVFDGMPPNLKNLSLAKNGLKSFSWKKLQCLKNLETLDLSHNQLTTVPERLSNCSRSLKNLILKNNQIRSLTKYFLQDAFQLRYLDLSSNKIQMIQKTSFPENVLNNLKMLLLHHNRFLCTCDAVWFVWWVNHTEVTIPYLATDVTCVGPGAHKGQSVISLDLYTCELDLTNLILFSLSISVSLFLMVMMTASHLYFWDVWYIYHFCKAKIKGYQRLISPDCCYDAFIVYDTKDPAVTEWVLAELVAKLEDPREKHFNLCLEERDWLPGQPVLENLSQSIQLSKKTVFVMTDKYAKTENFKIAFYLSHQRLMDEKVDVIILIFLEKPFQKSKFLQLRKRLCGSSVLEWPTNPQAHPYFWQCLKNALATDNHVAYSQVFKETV
Assay: TLR7 inhibition reporter assay (HEK-Blue cells, SEAP reporter)
Settings: HEK-Blue cells overexpressing human TLR7; stimulated with gardiquimod 7.5 μM; 22 hour incubation; SEAP readout
Source text: TLR7/8/9 Inhibition Reporter Assays HEK-Blue™-cells (Invivogen) overexpressing human TLR7, TLR8 or TLR9 receptors were used for screening inhibitors of these receptors using an inducible SEAP (secreted embryonic alkaline phosphatase) reporter gene under the control of the […] minimal promoter fused to five NF-κB and AP-1-binding sites. […]
measured-endpoint: IC50 (µM)

Cc1cc(C2CCN(C3CC4CCC(C3)N4CC3CCC3)CC2)cn2cc(-c3ccc(S(C)(=O)=O)cc3)nc12 (single isomer, unassigned) [Example 89]
2.2
COc1ccc(-c2cn3c(n2)CCC(C2CCN(C4CCN(C(=O)C5CC5)CC4)CC2)C3)cc1OC (racemic) [Example 42]
19
COc1ccc(-c2cn3c(n2)CC(C2CCN(C4CCN(C(C)C)CC4)CC2)CC3)cc1OC (racemic) [Example 58]
13

a = CS(=O)(=O)c1ccc(-c2cn3cc(C4CCN(C5CCN(C6COC6)CC5)CC4)cc(F)c3n2)cc1 [Example 111]
b = CS(=O)(=O)c1ccc(-c2cn3cc(C4CCN(C5CC6CCC(C5)N6CC5CC5)CC4)cc(F)c3n2)cc1 (single isomer, unassigned) [Example 115]
Problem: Record comparison, field IC50: mark the lower of a and b . Let me know the label of the one you choose.
Result: b
(b: 1.7 µM, a: 13 µM)

1 = Cc1cc(C2CCN(C3CCN(C(C)C)CC3)CC2)cc2nc(-c3ccc(S(C)(=O)=O)cc3)cn12 [Example 66]
2 = Cc1cc(C2CCN(C3CCN(CC4CC4)CC3)CC2)cn2cc(-c3ccc(S(C)(=O)=O)cc3)nc12 [Example 92]
Problem: Between 1 and 2 , whose recorded IC50 is greater? Let me know the label of the one you choose.
Result: 1

###

biological target: UniProtKB Q9NYK1; test: TLR7 inhibition reporter assay (HEK-Blue cells, SEAP reporter); conditions: HEK-Blue cells overexpressing human TLR7; stimulated with gardiquimod 7.5 μM; 22 hour incubation; SEAP readout
measured-endpoint: IC50 (µM)

Some entries whose results are on file:
COc1ccc(-c2cn3c(n2)CCC(C2CCN(C4CCN(CC5CC5)CC4)CC2)C3)cc1OC (single isomer, unassigned) [Example 57]
4.2
COc1ccc(-c2cn3cc(C4CCN(C5CCN(CC(C)C)CC5)CC4)cc(C)c3n2)cc1F [Example 6]
16
CC(C)CN1C2CCC1CC(N1CCC([C@@H]3CCc4nc(-c5ccc(S(C)(=O)=O)cc5)cn4C3)CC1)C2 (single isomer, unassigned) [Example 82]
9.2
Cc1cc(C2CCN(C3CCN(C(C)C)CC3)CC2)cn2cc(-c3ccc(S(C)(=O)=O)cc3)nc12 [Example 8]
2.3
COc1ccc(-c2cn3c(n2)CCC(C2CCN(C4CCN(C5CC5)CC4)CC2)C3)cc1OC (single isomer, unassigned) [Example 38]
6

A = CC(C)N1CCCC(N2CCC(c3cc(F)c4nc(-c5ccc(S(C)(=O)=O)cc5)cn4c3)CC2)CC1 (single isomer, unassigned) [Example 72]
B = CC(C)CN1C2CCC1CC(N1CCC(c3cc(F)c4nc(-c5ccc(S(C)(=O)=O)cc5)cn4c3)CC1)C2 (single isomer, unassigned) [Example 113]
Problem: Record comparison, field IC50: mark the lower of A and B . Let me know the label of the one you choose.
Result: B
(B: 0.6 µM, A: 3 µM)

a = CS(=O)(=O)c1ccc(-c2cn3cc(C4CCN(C5CC6CCC(C5)N6C5COC5)CC4)cc(F)c3n2)cc1 (single isomer, unassigned) [Example 120]
b = COc1ccc(-c2cn3cc(C4CCN(C5CC6CCC(C5)N6CC(C)C)CC4)cc(C)c3n2)cc1OC (single isomer, unassigned) [Example 18]
c = COc1ccc(-c2cn3cc(C4CCN(C5CC6(C5)CN(C5CC5)C6)CC4)cc(C)c3n2)cc1OC [Example 17]
d = Cc1cc(-c2ccc(N3CCN(C4CCOCC4)CC3)cc2)cn2cc(-c3ccc(S(C)(=O)=O)cc3)nc12 [Example 104]
Problem: Place the items in sequence of falling IC50. Provide the labels, sequenced as the question asks.
Result: a, d, b, c

1 = COc1ccc(-c2cn3c(n2)CCC(C2CCN(C4CC5(C4)CN(CC(C)C)C5)CC2)C3)cc1OC (single isomer, unassigned) [Example 53]
2 = CS(=O)(=O)c1ccc(-c2cn3cc(C4CCN(C5CCCN(CC6CC6)CC5)CC4)cc(F)c3n2)cc1 (single isomer, unassigned) [Example 127]
Problem: Between 1 and 2 , whose recorded IC50 is greater? Let me know the label of the one you choose.
Result: 1
(1: 2.6 µM, 2: 1.6 µM)
